assay: Half life period in dogs after oral administration at 1 mg/kg; type: ADME, organism-based, Canis lupus familiaris; set-up: dose 1 mg/kg, route oral; conditions: dog, in vivo
PARAMETER_MEASURED: half-life (h)
API: value field is a number in h; no unit string.

Query: Data request, read-out half-life, for Cc1nc(N)ccc1CNC(=O)Cn1c(C)cc(S(=O)(=O)Cc2ccccc2)c(N)c1=O
Result: 1.05

----------
What follows is a collection of pKi values obtained with Serine protease 1 (Homo sapiens, UniProt P07477).
Sequence (P07477 whole entry): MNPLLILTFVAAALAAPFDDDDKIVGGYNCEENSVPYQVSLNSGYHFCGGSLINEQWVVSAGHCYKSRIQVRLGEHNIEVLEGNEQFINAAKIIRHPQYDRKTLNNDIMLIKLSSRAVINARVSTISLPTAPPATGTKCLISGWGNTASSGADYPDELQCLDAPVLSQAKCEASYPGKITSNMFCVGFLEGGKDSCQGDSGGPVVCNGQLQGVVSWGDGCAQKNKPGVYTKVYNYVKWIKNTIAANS
Scale: negative log10 of molar concentration, which is what pKi denotes.

Below, each entry is followed by its recorded pKi result.
Cc1nc(N)ccc1CNC(=O)Cn1c(C)cc2c(c1=O)NCN(C1CCC1)S2(=O)=O : 5.20
Cc1nc(N)ccc1CNC(=O)Cn1c(C)cc(S(=O)(=O)CC2CCC2)c(N)c1=O : 6.26
Cc1nc(N)ccc1CNC(=O)Cn1c(C)cc(S(=O)(=O)c2ccccc2)c(N)c1=O : 6.30
Cc1nc(N)ccc1CNC(=O)Cn1c(C)cc(S(=O)(=O)NCC2CC2)c(N)c1=O : 6.00
Cc1nc(N)ccc1CNC(=O)Cn1c(C)cc(S(=O)(=O)NC2CCC2)c(N)c1=O : 5.96

Query: Data request, read-out pKi, for Cc1nc(N)ccc1CNC(=O)Cn1c(C)cc(S(=O)(=O)CC2CC2)c(N)c1=O
Result: 5.72

Query: Data request, read-out pKi, for Cc1nc(N)ccc1CNC(=O)Cn1c(C)cc2c(c1=O)NCN(CC1CC1)S2(=O)=O
Result: 5.21

Query: Data request, read-out pKi, for Cc1nc(N)ccc1CNC(=O)Cn1c(C)cc2c(c1=O)NCN(C1CC1)S2(=O)=O
Result: 5.00

Query: Data request, read-out pKi, for Cc1nc(N)ccc1CNC(=O)Cn1c(C)cc(S(=O)(=O)C2CC2)c(N)c1=O
Result: 5.55

Query: Data request, read-out pKi, for Cc1nc(N)ccc1CNC(=O)Cn1c(C)cc(S(=O)(=O)CC2CCCC2)c(N)c1=O
Result: 6.20

Query: Data request, read-out pKi, for Cc1nc(N)ccc1CNC(=O)Cn1c(C)cc(S(=O)(=O)NC2CC2)c(N)c1=O
Result: 5.54

Query: Data request, read-out pKi, for Cc1ccc(S(=O)(=O)c2cc(C)n(CC(=O)NCc3ccc(N)nc3C)c(=O)c2N)cc1
Result: 6.10
